Hello, the source for this data is patent US20070299091A1, in case you need it.

- Tgt: human D2short (Homo sapiens)
- Construct: expressed in transfected cells
- Sequence (P14416 1-414 isoform P14416-2): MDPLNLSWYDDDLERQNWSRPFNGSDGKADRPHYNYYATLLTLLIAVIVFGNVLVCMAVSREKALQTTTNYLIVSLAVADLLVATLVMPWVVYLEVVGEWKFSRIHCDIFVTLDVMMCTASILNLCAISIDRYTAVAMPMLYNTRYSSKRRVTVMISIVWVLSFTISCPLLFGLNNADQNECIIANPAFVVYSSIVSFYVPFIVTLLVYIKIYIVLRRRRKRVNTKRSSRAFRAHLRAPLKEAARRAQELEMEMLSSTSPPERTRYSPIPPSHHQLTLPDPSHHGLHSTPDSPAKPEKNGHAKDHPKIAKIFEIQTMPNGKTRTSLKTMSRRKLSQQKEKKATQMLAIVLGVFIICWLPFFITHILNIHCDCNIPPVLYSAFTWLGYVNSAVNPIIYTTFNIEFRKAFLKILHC
- Assay Remarks: radioligand binding, [3H]spiperone, CHO cell membrane homogenates expressing human D2short
- Measurement Context: ratio of Ki values D2short/D3
Quantity Measured: D3-selectivity D2short/D3
Answer field: number only, no words.

O=C(NCCCCN1CCN(c2cccc(Cl)c2Cl)CC1)c1cc2cccnc2[nH]1 ... 34
O=C(NCCCCN1CCN(c2cccc(Cl)c2Cl)CC1)c1cc2cccnc2n1S(=O)(=O)c1ccccc1 ... 49
COc1ccccc1N1CCN(CCCCNC(=O)c2cc3cccnc3[nH]2)CC1 ... 51

API: the following record is the query input.
(Q) Look up D3-selectivity D2short/D3: COc1ccccc1N1CCN(CCCCNC(=O)c2cc3cccnc3n2S(=O)(=O)c2ccccc2)CC1
(A) 12
